assayedTarget: mouse ADAMTS7 (Mus musculus, UniProt Q68SA9, E373Q)
Construct: Full-length mouse Adamts7 1-1857 (Uniprot Q68SA9, WT or E373Q catalytic mutant); expressed in transfected cells; host or cells: Human Coronary Artery Smooth Muscle Cells (HCA-SMC, Lonza), adenovirus 50 MOI
Sequence (Q68SA9 221-1657 E373Q): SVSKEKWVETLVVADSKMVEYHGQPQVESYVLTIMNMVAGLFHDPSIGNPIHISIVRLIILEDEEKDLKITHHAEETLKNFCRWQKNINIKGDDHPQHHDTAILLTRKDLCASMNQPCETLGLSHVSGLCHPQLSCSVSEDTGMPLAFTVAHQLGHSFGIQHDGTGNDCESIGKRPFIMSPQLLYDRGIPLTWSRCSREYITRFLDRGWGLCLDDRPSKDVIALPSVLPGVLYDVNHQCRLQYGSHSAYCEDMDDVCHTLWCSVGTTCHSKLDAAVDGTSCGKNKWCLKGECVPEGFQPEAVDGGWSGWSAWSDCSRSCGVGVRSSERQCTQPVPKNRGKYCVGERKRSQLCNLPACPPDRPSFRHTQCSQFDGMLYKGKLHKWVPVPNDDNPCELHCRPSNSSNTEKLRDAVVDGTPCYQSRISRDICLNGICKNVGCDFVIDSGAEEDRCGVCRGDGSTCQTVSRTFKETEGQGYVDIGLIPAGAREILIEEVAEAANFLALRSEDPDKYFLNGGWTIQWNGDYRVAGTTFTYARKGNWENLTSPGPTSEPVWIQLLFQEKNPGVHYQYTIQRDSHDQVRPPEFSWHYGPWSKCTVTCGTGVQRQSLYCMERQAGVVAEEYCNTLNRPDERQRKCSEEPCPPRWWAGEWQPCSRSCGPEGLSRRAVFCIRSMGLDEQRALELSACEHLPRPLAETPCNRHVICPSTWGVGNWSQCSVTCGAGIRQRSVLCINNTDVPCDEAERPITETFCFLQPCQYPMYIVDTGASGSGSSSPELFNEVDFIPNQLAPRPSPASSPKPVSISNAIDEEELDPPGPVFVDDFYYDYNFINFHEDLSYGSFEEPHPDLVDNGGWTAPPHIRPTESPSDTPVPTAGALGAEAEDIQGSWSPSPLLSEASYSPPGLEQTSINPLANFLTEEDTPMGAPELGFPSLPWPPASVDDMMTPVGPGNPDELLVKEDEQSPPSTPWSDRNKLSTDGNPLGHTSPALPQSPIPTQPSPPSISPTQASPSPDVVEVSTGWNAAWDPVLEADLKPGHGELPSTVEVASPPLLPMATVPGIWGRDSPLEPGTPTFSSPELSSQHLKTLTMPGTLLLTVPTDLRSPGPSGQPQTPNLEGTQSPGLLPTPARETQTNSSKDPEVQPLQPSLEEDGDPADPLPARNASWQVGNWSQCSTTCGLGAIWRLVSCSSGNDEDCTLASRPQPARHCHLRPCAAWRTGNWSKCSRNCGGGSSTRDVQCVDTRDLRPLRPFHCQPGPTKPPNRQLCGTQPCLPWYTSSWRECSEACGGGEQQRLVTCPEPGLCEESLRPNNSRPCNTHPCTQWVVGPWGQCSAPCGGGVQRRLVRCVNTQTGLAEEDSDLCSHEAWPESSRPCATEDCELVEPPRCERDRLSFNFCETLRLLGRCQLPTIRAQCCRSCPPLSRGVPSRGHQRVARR
assayText: TMT10 TAILS N-terminomics, SMC2 experiment (process replicates, trypsin/AspN digest)
Assay type: cell-based
experimentalConditions: SMC2_TAILS HC; log fold change, mEQ over Luc
Square brackets hold non-standard residues; d marks the D form. Ends that are not written are not given here.
Please use Satisfied whenever logFC.mEQ.over.Luc is not below -0.3, and Not satisfied whenever it is.

{"substance": "FOXG1_235 (LNKCFVKVPRHY; listed as Homo sapiens)", "groupLabel": "Satisfied"}
{"substance": "EIF4B_426 (QTGTSTTSSR; listed as Homo sapiens)", "groupLabel": "Satisfied"}
{"substance": "CEP192_728 (DKSTAGR; listed as Homo sapiens)", "groupLabel": "Not satisfied"}
{"substance": "FBLN2_665 (FSQVASNTIPLPLPQPNTCK; listed as Homo sapiens)", "groupLabel": "Satisfied"}
{"substance": "FSTL_1290 (LQKHQETA; listed as Homo sapiens)", "groupLabel": "Satisfied"}
{"substance": "LOX_123 (HWFQAGYSTSR; listed as Homo sapiens)", "groupLabel": "Satisfied"}
{"substance": "FN1_1143 (LTPGVEYVYTIQVLR; listed as Homo sapiens)", "groupLabel": "Not satisfied"}
{"substance": "ACTG1_105 (LTEAPLNPKANR; listed as Homo sapiens)", "groupLabel": "Not satisfied"}
{"substance": "BMPER_43 (LTGSVAKCENEG; listed as Homo sapiens)", "groupLabel": "Satisfied"}
{"substance": "APOA1_86 (EQLGPVTQEFW; listed as Homo sapiens)", "groupLabel": "Satisfied"}
{"substance": "ADNP2_375 (SQPVGPVNK; listed as Homo sapiens)", "groupLabel": "Satisfied"}
{"substance": "COL1A2_866 (LLGAPGILGLPGSR; listed as Homo sapiens)", "groupLabel": "Not satisfied"}
{"substance": "FN1_35 ([code q]MVQPQSPVAVSQSKPGCY; not fully specified (residue 2); listed as Homo sapiens)", "groupLabel": "Satisfied"}
{"substance": "AEBP1_37 (FLEGFLSELEPEPR; listed as Homo sapiens)", "groupLabel": "Satisfied"}
{"substance": "FLNA_1285 (LTQTGGPHVKAR; listed as Homo sapiens)", "groupLabel": "Not satisfied"}
{"substance": "COL1A2_305 (LTGAKGAAGLPGVAGAPGLPGPR; listed as Homo sapiens)", "groupLabel": "Not satisfied"}
{"substance": "EMSY_943 (QTVVQVLAVK; listed as Homo sapiens)", "groupLabel": "Satisfied"}
{"substance": "DBN1_434 (APVEPATA; listed as Homo sapiens)", "groupLabel": "Satisfied"}
{"substance": "IGFBP3_32 (AGLGPVVR; listed as Homo sapiens)", "groupLabel": "Not satisfied"}
